- Tested On: NADPH oxidase 5 (Homo sapiens) (UniProt Q96PH1)
- Sequence (Q96PH1 whole entry, looked up): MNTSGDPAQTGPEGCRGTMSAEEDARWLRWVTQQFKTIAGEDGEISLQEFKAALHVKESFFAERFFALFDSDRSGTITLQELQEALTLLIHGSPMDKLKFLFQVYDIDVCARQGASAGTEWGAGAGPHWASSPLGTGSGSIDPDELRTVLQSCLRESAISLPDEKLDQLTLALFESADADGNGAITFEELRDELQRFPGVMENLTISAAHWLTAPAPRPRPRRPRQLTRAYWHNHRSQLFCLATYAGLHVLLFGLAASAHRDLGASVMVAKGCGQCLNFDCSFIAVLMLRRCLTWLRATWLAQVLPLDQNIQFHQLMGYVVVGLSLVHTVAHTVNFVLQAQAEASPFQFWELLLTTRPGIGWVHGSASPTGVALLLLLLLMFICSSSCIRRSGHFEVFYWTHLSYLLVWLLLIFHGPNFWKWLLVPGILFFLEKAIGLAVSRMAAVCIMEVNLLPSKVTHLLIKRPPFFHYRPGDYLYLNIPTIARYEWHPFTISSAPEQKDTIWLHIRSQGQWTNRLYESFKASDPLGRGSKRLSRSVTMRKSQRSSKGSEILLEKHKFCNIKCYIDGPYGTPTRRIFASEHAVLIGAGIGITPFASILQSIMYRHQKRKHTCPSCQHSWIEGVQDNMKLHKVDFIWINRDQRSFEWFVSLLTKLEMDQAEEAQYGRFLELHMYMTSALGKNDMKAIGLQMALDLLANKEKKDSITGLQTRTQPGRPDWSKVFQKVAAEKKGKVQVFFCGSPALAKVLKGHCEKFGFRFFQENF
- Assay Remarks: compounds shifting NOX5 Amplex Red fluorescence – cell-based, HEK293-NOX5, NOX inhibitor project, primary screen (AID 1161)
- Conditions: HEK293-NOX5, ionomycin, 45 min, higher = more signal
Use -0.2 as the dividing line for z-score, with the line itself on the YES side and lower values as NO.

Ask: Has O=C1C[C@@](C(=O)NCc2ccccc2)(c2ccc([N+](=O)[O-])cc2)[C@@H](c2ccc(CO)cc2)N1CC12CC3CC(CC(C3)C1)C2 a recorded z-score greater than or equal to -0.2?
Reply: YES

Ask: Has O=C(CS)NCCCCCNC(=O)[C@@H]1C[C@@H]2C(=O)NCC(=O)N2[C@@H]1c1cccc(OCCO)c1 a recorded z-score greater than or equal to -0.2?
Reply: YES

Ask: Has CCCC[C@H]1C[C@@H]1[C@@H]1N(P(=O)(c2ccccc2)c2ccccc2)C[C@@](O)(c2ccccc2)CC12CC2 a recorded z-score greater than or equal to -0.2?
Reply: NO

Ask: Has COCCOC(=O)N1C(=O)[C@@]2(c3cc(C#CC4(O)CCCCCC4)ccc31)[C@H](C(=O)Nc1nc3ccccc3s1)[C@H]1C(=O)O[C@H](c3ccccc3)[C@H](c3ccccc3)N1[C@@H]2c1ccc(OCCO)cc1 a recorded z-score greater than or equal to -0.2?
Reply: YES

Ask: Has OB1C=CCC(CCc2ccccc2)O1 (stereo unspecified) a recorded z-score greater than or equal to -0.2?
Reply: YES

Ask: Has Cc1ccc(S[C@]2(C(=O)O)CC(=O)N(C(C)C)[C@@H]2c2ccc(CO)cc2)cc1 a recorded z-score greater than or equal to -0.2?
Reply: NO

Ask: Has COC(=O)c1c(CC[C@@H](CO)NC(=O)NCCc2c[nH]c3ccccc23)oc(C(=O)Cc2ccccc2)c1C(=O)OC a recorded z-score greater than or equal to -0.2?
Reply: NO

Ask: Has CN1CCC(CCCO)=CC1c1cccs1 (stereo unspecified) a recorded z-score greater than or equal to -0.2?
Reply: YES

Ask: Has [N-]=[N+]=Nc1ccccc1C[C@@]1(C(=O)N2CCCCC2)N=C(c2ccc(OCCCO)cc2)O[C@@H]1c1ccccc1N=[N+]=[N-] a recorded z-score greater than or equal to -0.2?
Reply: NO

Ask: Has O=C1C2C=CC(C(O)c3ccc(-c4ccccc4)s3)N(Nc3ccccc3)C2C(=O)N1c1ccccc1 (stereo unspecified) a recorded z-score greater than or equal to -0.2?
Reply: NO

Ask: Has CCCCN1CC=CC23O[C@@H]4C=CCCOC(=O)C4[C@H]2C(=O)N(CCCCCO)[C@@H]3C1=O (stereo partly specified) a recorded z-score greater than or equal to -0.2?
Reply: YES

Ask: Has NC(=O)N1C(=O)C2C(C1=O)C1C=C(CCCO)C2C(C2CC2)N1Cc1cc2c(cc1Br)OCO2 (stereo unspecified) a recorded z-score greater than or equal to -0.2?
Reply: NO

Ask: Has C=C(/C(=C/C[C@H](OC(=O)c1ccncc1)c1ccc(OCCO)cc1)c1cc(C(=O)OC)ccc1OC)C(C)C a recorded z-score greater than or equal to -0.2?
Reply: NO

Ask: Has CCCC[C@@H]1C[C@H]1[C@@H](NC(=O)c1cccnc1)c1ccc(Cl)cc1 a recorded z-score greater than or equal to -0.2?
Reply: YES

Ask: Has Cc1ccc(S[C@]2(C(=O)NCC(C)C)CC(=O)N(Cc3cc(C(F)(F)F)cc(C(F)(F)F)c3)[C@@H]2c2ccc(CO)cc2)cc1 a recorded z-score greater than or equal to -0.2?
Reply: YES

====

- Assay Remarks: optical density shifts of acrAB sulA E. coli – strain DRC41, OD650, 48 h, E. coli filamentation inducer project, primary screen (AID 1152);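 further: E. coli MC1000 strain DRC41 lacking acrAB efflux pump and sulA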
- Conditions: higher = more signal, called active from +8 up or from −8 down
Kindly supply the reported z-score values for the records listed here.
Enter a number only.

Ask: Give the value of z-score reported for the following: CCCCC(=C=CC[C@@H](O)c1ccc(CO)o1)CCO
Reply: 0.702

Ask: Give the value of z-score reported for the following: C#CCN1[C@@H](Cc2ccc(O)cc2)C(=O)O[C@H](Cc2ccccc2)[C@@H]1/C=C/C1CC1
Reply: -0.332

Ask: Give the value of z-score reported for the following: [N-]=[N+]=Nc1ccccc1C[C@@]1(C(=O)N2CCCCC2)N=C(c2ccc(OCCCO)cc2)O[C@@H]1c1ccccc1
Reply: 2.42

Ask: Give the value of z-score reported for the following: C[N+](C)(C)CCCCCCNC(=O)[C@H]1C[C@H]2C(=O)N[C@@H](Cc3ccccc3)C(=O)N2[C@H]1c1cccc(OCCO)c1
Reply: 0.123

====

- Assay Remarks: blockers of DNA damage checkpoint Chk1 activation – imaging, HeLa, hydroxyurea, phospho-Chk1 antibody, percent positive cells, primary screen (AID 1186)
- Conditions: hydroxyurea-induced phospho-Chk1 immunofluorescence imaging, higher = more signal
Active and inactive are the calls of the source. No rule for the calls is given here.
Kindly supply the reported z-score values for the records listed here.

Ask: Give the value of z-score reported for the following: C=C[C@H](C)[C@@H](OC(=O)Nc1ccc(SC)cc1)c1ccc(O)c2ccccc12
Reply: 1.16 (inactive)

Ask: Give the value of z-score reported for the following: CC(=O)NCCCC[C@@H]1NC(=O)[C@H]2C[C@@H](C(=O)NCCCCCNC(=O)CS)[C@@H](c3ccc(O)cc3)N2C1=O
Reply: 0.0401 (inactive)

Ask: Give the value of z-score reported for the following: O=C1NC(=O)C2C1C=CC(C(O)C1CC=CCC1)N2Nc1ccccn1 (stereo unspecified)
Reply: 0.113 (inactive)

Ask: Give the value of z-score reported for the following: Cc1ccc(/C=C/C=O)cc1
Reply: 0.503 (inactive)

Ask: Give the value of z-score reported for the following: C=C(/C(=C/C[C@H](OC(=O)c1ccncc1)c1ccc(OCCO)cc1)c1cc(C(=O)OC)ccc1OC)C(C)C
Reply: -0.962 (inactive)

Ask: Give the value of z-score reported for the following: CC1CC/C=C\[C@H]2OC34C=CCN(c5ccc6ccccc6c5)C(=O)[C@H]3N(CCO)C(=O)[C@@H]4C2C(=O)O1 (stereo partly specified)
Reply: -0.209 (inactive)

Ask: Give the value of z-score reported for the following: NCCCCCNC(=O)[C@H]1C[C@H]2C(=O)N3CCC[C@H]3C(=O)N2[C@H]1c1ccc(O)cc1
Reply: -0.15 (inactive)

Ask: Give the value of z-score reported for the following: CCOC(=O)C1=C[C@@H](C(C)C)N(S(=O)(=O)c2ccc(C)cc2)[C@H]1c1ccccc1F
Reply: 0.503 (inactive)

Ask: Give the value of z-score reported for the following: CCCC1(C(=O)OC)C=C2C(=C(c3ccccc3)C(=O)C2C)CN1 (stereo unspecified)
Reply: -0.323 (inactive)

Ask: Give the value of z-score reported for the following: O=C1O[C@@H](c2ccccc2)[C@@H](c2ccccc2)N2[C@@H](c3ccc(OCCO)cc3)[C@]3(C(=O)Nc4ccc(C#CCCO)cc43)[C@@H](C(=O)NC[C@H](O)c3ccccc3)[C@H]12
Reply: -0.174 (inactive)

Ask: Give the value of z-score reported for the following: COC(=O)[C@@]1(Cc2ccccc2)[C@H]2c3cc(C(=O)N(C)C)n(CCc4c[nH]c5ccc(O)cc45)c3C[C@H]2CN1C(=O)c1ccccc1
Reply: -0.996 (inactive)

====

- Assay Remarks: small molecules captured by biotinylated probe aFGF2 – biochemical, small-molecule microarray, fluorescence 635/667, stem cell growth factor project, primary screen (AID 1067);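 further: measures binding of biotinylated aFGF2 protein to printed compounds on slides; z-score merges feature fluorescence and signal-to-noise across triplicate slides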
- Conditions: higher = more signal
Use -0.006 as the dividing line for composite z-score, with the line itself on the TRUE side and lower values as FALSE.

Ask: Has CO[C@H]1O[C@H](CO)[C@@H](OC(=O)Nc2ccc(Br)cc2)[C@@H]2OC(=O)[C@H](Cc3cccc(Br)c3)C/C=C/C[C@@H](Cc3cccc(Br)c3)C(=O)O[C@@H]12 a recorded composite z-score greater than or equal to -0.006?
Reply: FALSE

Ask: Has CC(C)[C@@H](C(=O)O)n1cc(C2(O)CCCCC2)nn1 a recorded composite z-score greater than or equal to -0.006?
Reply: FALSE

Ask: Has C=C(C)[C@@H]1CC=C(C(O)C2C=CC3C(=O)NC(=O)C3N2Nc2ccc(Cl)cc2Cl)CC1 (stereo partly drawn) a recorded composite z-score greater than or equal to -0.006?
Reply: TRUE

Ask: Has COc1ccc([Si](C)(C)[C@@H]2[C@@H](CCn3cc(CCO)nn3)O[C@]3(C(=O)N(Cc4cccc(N5C(=O)c6cccc7cccc5c67)c4)c4ccccc43)[C@H]2C)cc1 a recorded composite z-score greater than or equal to -0.006?
Reply: FALSE

Ask: Has CCCC[C@@H]1C[C@H]1[C@@H](NC(=O)c1cccnc1)c1ccc(Cl)cc1 a recorded composite z-score greater than or equal to -0.006?
Reply: FALSE

Ask: Has NC(=O)NCC#Cc1ccc2c(c1)[C@]1(C(=O)N2)[C@H](C(=O)O)[C@H]2C(=O)O[C@H](c3ccccc3)[C@H](c3ccccc3)N2[C@@H]1c1ccc(O)cc1 a recorded composite z-score greater than or equal to -0.006?
Reply: FALSE

Ask: Has O=C1C2C=CC(C(O)c3c(F)cccc3Cl)N(Nc3ccccc3F)C2C(=O)N1c1ccccc1 (stereo not drawn) a recorded composite z-score greater than or equal to -0.006?
Reply: TRUE

Ask: Has CCCCN1CC=CC23O[C@@H]4/C=C\CCCOC(=O)C4[C@H]2C(=O)N(CCCO)[C@@H]3C1=O (stereo partly drawn) a recorded composite z-score greater than or equal to -0.006?
Reply: FALSE

Ask: Has COC(=O)[C@@]1(Cc2ccc(OC)cc2)[C@H]2c3cc(C(=O)N(C)C)n(Cc4ccc(C(F)(F)F)nc4)c3C[C@H]2CN1C(=O)c1ccccc1 a recorded composite z-score greater than or equal to -0.006?
Reply: TRUE

Ask: Has COCCOC(=O)N1C(=O)[C@@]2(c3cc(C#CC4(O)CCCCCC4)ccc31)[C@H](C(=O)Nc1nc3ccccc3s1)[C@H]1C(=O)O[C@H](c3ccccc3)[C@H](c3ccccc3)N1[C@@H]2c1ccccc1OCCO a recorded composite z-score greater than or equal to -0.006?
Reply: FALSE

Ask: Has CC[C@@H]1C=C(C(=O)O)[C@H](c2cccc3ccccc23)N1S(=O)(=O)c1ccc(C)cc1 a recorded composite z-score greater than or equal to -0.006?
Reply: FALSE

Ask: Has COCCOC(=O)N1C(=O)[C@@]2(c3cc(C#CC4(O)CCCCCC4)ccc31)[C@H](c1ccccc1OCCO)N1[C@H](c3ccccc3)[C@H](c3ccccc3)OC(=O)[C@H]1[C@@H]2C(=O)N1CCc2cc(OC)c(OC)cc2C1 a recorded composite z-score greater than or equal to -0.006?
Reply: FALSE

Ask: Has COc1ccc(CCNC(=O)[C@@]2(C)c3ccccc3C(=O)N(c3ccc(C)cn3)[C@H]2c2ccc(CO)cc2)cc1 a recorded composite z-score greater than or equal to -0.006?
Reply: FALSE

Ask: Has CCCNC(=O)[C@@H]1c2ccccc2C(=O)N(Cc2ccccc2OC)[C@H]1c1ccc(CO)cc1 a recorded composite z-score greater than or equal to -0.006?
Reply: TRUE

Ask: Has O=C1C2C=CC(C(O)c3cc(C(F)(F)F)cc(C(F)(F)F)c3)N(Nc3ccccc3)C2C(=O)N1c1ccccc1 (stereo not drawn) a recorded composite z-score greater than or equal to -0.006?
Reply: FALSE

Ask: Has CC(c1ccccc1)C(O)C1C=CC2C(=O)N(c3ccccc3)C(=O)C2N1Nc1ccccc1 (stereo not drawn) a recorded composite z-score greater than or equal to -0.006?
Reply: TRUE

Ask: Has O[C@@H](Cc1ccccc1)[C@@H](/C=C/C1CC1)NCc1cccc(Cl)c1 a recorded composite z-score greater than or equal to -0.006?
Reply: FALSE

Ask: Has COc1cc2c(cc1OC)CN(C(=O)[C@H]1[C@@H]3C(=O)O[C@@H](c4ccccc4)[C@@H](c4ccccc4)N3[C@@H](c3ccccc3OCCO)[C@]13C(=O)Nc1ccc(C#CCCO)cc13)CC2 a recorded composite z-score greater than or equal to -0.006?
Reply: TRUE

Ask: Has COCCOC(=O)N1C(=O)[C@@]2(c3ccccc31)[C@H](C(N)=O)[C@H]1C(=O)O[C@H](c3ccccc3)[C@H](c3ccccc3)N1[C@@H]2c1ccc(O)cc1 a recorded composite z-score greater than or equal to -0.006?
Reply: TRUE

Ask: Has O=C(NCc1ccccc1)[C@@H]1c2ccccc2C(=O)N(C2Cc3ccccc3C2)[C@H]1c1ccc(CO)cc1 a recorded composite z-score greater than or equal to -0.006?
Reply: TRUE

Ask: Has COc1ccccc1CN1C(=O)c2ccccc2[C@@]2(Cc3ccccc3N(CCCN(C)C)C2=O)[C@@H]1c1ccc(CO)cc1 a recorded composite z-score greater than or equal to -0.006?
Reply: FALSE

Ask: Has CCOC(=O)C[C@H]1[C@H](OC(=O)c2cc3ccccc3oc2=O)[C@@H](NC(=O)CC(C)C)c2cc(OCCCO)ccc2N1C(=O)c1ccccc1 a recorded composite z-score greater than or equal to -0.006?
Reply: FALSE

Ask: Has C=CCN1C(=O)[C@]2(Cc3ccccc3)N=C(c3ccc(OCCCO)cc3)O[C@@H]2c2ccccc21 a recorded composite z-score greater than or equal to -0.006?
Reply: FALSE

Ask: Has C=C(CCCC)/C(=C/C[C@H](OC(=O)c1ccncc1)c1ccc(OCCO)cc1)c1cc(C(=O)OC)ccc1OC a recorded composite z-score greater than or equal to -0.006?
Reply: FALSE

Ask: Has CC(C)NC(=O)[C@@H]1c2ccccc2C(=O)N(C(C)C)[C@H]1c1ccc(CO)cc1 a recorded composite z-score greater than or equal to -0.006?
Reply: FALSE

Ask: Has C=CC[C@]12N=C(c3ccc(OCCCO)cc3)O[C@H]1c1ccccc1N(CCS(=O)(=O)c1ccccc1)C2=O a recorded composite z-score greater than or equal to -0.006?
Reply: TRUE

Ask: Has CC(=O)NCCCC[C@@H]1NC(=O)[C@H]2C[C@@H](C(=O)NCCCCCNC(=O)CS)[C@@H](c3ccc(O)cc3)N2C1=O a recorded composite z-score greater than or equal to -0.006?
Reply: FALSE

Ask: Has C[N+](C)(C)CCCC[C@@H]1NC(=O)[C@@H]2C[C@H](C(=O)NCCCCCCNC(=O)CS)[C@H](c3ccc(O)cc3)N2C1=O a recorded composite z-score greater than or equal to -0.006?
Reply: FALSE
